Hello, the source for this data is ChEMBL document CHEMBL1201862, in case you need it.

tested on: DMS-273; assay: NCI tumour cell line growth inhibition, 48 h
Active and inactive are the calls of the source. Rule as the data show it: active = GI50 up to about 1.1 µM and inactive = higher.
Choose the fitting class; nothing outside active, inactive is accepted.

Query :: I'd appreciate the recorded outcome for COc1ccc2c(c1)C(=O)N1CCOC1C2C(=O)O (stereo not given) from this test.
Result :: active

Query :: Follow-up entry: CCCCCCCCCCCCC(Br)C(=O)SCCNC(=O)CCNC(=O)[C@@H](O)C(C)(C)COP(=O)(O)OP(=O)(O)OCC1OC(n2cnc3c(N)ncnc32)C(O)C1OP(=O)(O)O (stereo not given in full)
Result :: inactive

Query :: Follow-up entry: NC(CCCC(N)P(=O)(O)O)C(=O)O (stereo not given)
Result :: inactive

Query :: Follow-up entry: Cc1nc2nnnn2c2c1C(=O)Nc1ccccc1N2
Result :: inactive

Query :: Follow-up entry: COc1ccc(C(Cl)=C(c2ccc(OCCN(C)C)cc2)c2ccc(OCCN(C)C)cc2)cc1
Result :: inactive
